experiment: Cytotoxicity against African green monkey Vero E6 cells assessed as reduction in cell viability by CCK-8 assay; format: toxicity, cell-based, Vero C1008; settings: chlorocebus sabaeus
ASSAY_METRIC: CC50

The compound listed as `COc1ccc2[nH]c3c(C)c4ccncc4c(C)c3c2c1` has a reported CC50 of > 10 µM

###

test system: MDCK; assay: Cytotoxicity against MDCK cells assessed as reduction in cell viability incubated for 48 hrs by MTT assay; format: toxicity, cell-based, Canis lupus familiaris; details: dog
ASSAY_METRIC: CC50

Sample `COc1ccc2[nH]c3c(C)c4ccncc4c(C)c3c2c1` ; CC50 observed: 5.33 µM

###

test: Cytotoxicity against human BEAS-2B cells assessed as reduction in cell viability incubated for 48 hrs by MTT assay; type: toxicity, cell-based
ASSAY_METRIC: CC50 at 48 h (µM)
Give bare numbers, in µM.

Record `COc1ccc2[nH]c3c(C)c4ccncc4c(C)c3c2c1` , field CC50 at 48 h: 5.33

###

assay: Cytotoxicity against human HEK293T cells assessed as reduction in cell viability incubated for 48 hrs by MTT assay; format: toxicity, cell-based, HEK-293T
ASSAY_METRIC: CC50 at 48 h
State the result as a value with its unit after it.

Record `COc1ccc2[nH]c3c(C)c4ccncc4c(C)c3c2c1` . Reported CC50 at 48 h: 5.33 µM
